# system-name: Recombinant human his-tagged IGF 1R extracellular domain protein (human) (UniProt P08069)
# procedure-text: SPR, captured IgG, IGF-1R ECD-his analyte, dissociation pH 6
reported-endpoint: Kd

INSERT INTO results (binder, observed_measurement) VALUES
  ('VRDN-02546 (antibody, V domains shown) VH: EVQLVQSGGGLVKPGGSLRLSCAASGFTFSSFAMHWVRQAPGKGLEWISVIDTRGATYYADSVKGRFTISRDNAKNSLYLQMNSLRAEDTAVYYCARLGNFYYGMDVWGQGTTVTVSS VL: EIVLTQSPGTLSVSPGERATLSCRASQSIGSSLHWYQQKPGQAPRLLIKYASQSLSGIPDRFSGSGSGTDFTLTISRLEPEDFAVYYCHHSSRLPHTFGQGTKVEIK', '0.0259 nM'),
  ('VRDN-02545 (antibody, V domains shown) VH: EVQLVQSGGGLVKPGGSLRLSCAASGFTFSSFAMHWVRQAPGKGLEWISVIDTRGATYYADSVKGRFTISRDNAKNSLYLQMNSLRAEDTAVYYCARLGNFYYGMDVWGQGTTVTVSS VL: EIVLTQSPGTLSVSPGERATLSCRASQSIGSSLHWYQQKPGQAPRLLIKYASQSLHGIPDRFSGSGSGTDFTLTISRLEPEDFAVYYCHQSSRLPHTFGQGTKVEIK', '0.027 nM'),
  ('VRDN-02507 (antibody, V domains shown) VH: EVQLVQSGGGLVKPGGSLRLSCAASGFTFSSHAMHWVRQAPGKGLEWISVIDTRGATYYADSVKGRFTISRDNAKNSLYLQMNSLRAEDTAVYYCARLGNFYYGMDVWGQGTTVTVSS VL: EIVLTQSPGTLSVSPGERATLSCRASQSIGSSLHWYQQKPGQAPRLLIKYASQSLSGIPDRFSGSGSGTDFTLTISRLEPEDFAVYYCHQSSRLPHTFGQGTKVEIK', '0.0469 nM'),
  ('VRDN-02517 (antibody, V domains shown) VH: EVQLVQSGGGLVKPGGSLRLSCAASGFTFSSFAMHWVRQAPGKGLEWISVIDTRGATYYADSVKGRFTISRDNAKNSLYLQMNSLRAEDTAVYYCAHLGNFYYGMDVWGQGTTVTVSS VL: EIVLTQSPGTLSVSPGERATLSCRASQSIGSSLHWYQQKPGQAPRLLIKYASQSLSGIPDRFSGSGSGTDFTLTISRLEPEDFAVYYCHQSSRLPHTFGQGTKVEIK', '5.07 nM');

Requested read-out: Kd. Entry: VRDN-02556 (antibody, V domains shown) VH: EVQLVQSGGGLVKPGGSLRLSCAASGFTFSSFAMHWVRQAPGKGLEWISVIDTRGATYYADSVKGRFTISRDNAKNSLYLQMNSLRAEDTAVYYCARLGNFYYHMDVWGQGTTVTVSS VL: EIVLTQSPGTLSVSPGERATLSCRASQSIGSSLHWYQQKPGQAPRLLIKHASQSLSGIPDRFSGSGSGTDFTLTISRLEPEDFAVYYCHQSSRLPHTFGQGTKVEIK
8.47 nM

Requested read-out: Kd. Entry: VRDN-02501 (antibody, V domains shown) VH: EVQLVQSGGGLVKPGGSLRLSCAASHFTFSSFAMHWVRQAPGKGLEWISVIDTRGATYYADSVKGRFTISRDNAKNSLYLQMNSLRAEDTAVYYCARLGNFYYGMDVWGQGTTVTVSS VL: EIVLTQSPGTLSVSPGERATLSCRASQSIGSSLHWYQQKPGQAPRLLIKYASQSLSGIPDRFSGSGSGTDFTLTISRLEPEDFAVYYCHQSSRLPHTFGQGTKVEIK
0.0259 nM

The measurements presented in this section are drawn from patent US20240343814A1.
